Reference source: the supplement of paper PMC6757056

B1: library; a variant is named by its letters at N, in order (parent)
chain: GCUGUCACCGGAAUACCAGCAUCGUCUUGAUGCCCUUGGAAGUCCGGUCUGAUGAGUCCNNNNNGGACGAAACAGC

# Variants of: B1
# Experiment notes: FACS-Seq fitted mean relative fluorescence mCherry/BFP with ligand (log10 relative fluorescence); ligand concentration (+) FACS-Seq: 1 mM; higher = higher reporter protein expression
# Particulars: HEK293T, ligand present: yes
Hi there, I'd appreciate the recorded FACS-Seq fitted mean (log10) for every entry that follows.
Answers are plain numbers.

Sequence input | FACS-Seq fitted mean (log10)
GCUGUCACCGGAAUACCAGCAUCGUCUUGAUGCCCUUGGAAGUCCGGUCUGAUGAGUCCUAAACGGACGAAACAGC [UAAAC] | 0.924
GCUGUCACCGGAAUACCAGCAUCGUCUUGAUGCCCUUGGAAGUCCGGUCUGAUGAGUCCUAGCGGGACGAAACAGC [UAGCG] | 1.08
GCUGUCACCGGAAUACCAGCAUCGUCUUGAUGCCCUUGGAAGUCCGGUCUGAUGAGUCCCCGGCGGACGAAACAGC [CCGGC] | 0.721
GCUGUCACCGGAAUACCAGCAUCGUCUUGAUGCCCUUGGAAGUCCGGUCUGAUGAGUCCCGGCCGGACGAAACAGC [CGGCC] | 0.642

Dear colleague, could you please provide FACS-Seq fitted mean (log10) for the variants listed below?
1. GCUGUCACCGGAAUACCAGCAUCGUCUUGAUGCCCUUGGAAGUCCGGUCUGAUGAGUCCUUGUCGGACGAAACAGC [UUGUC]
2. GCUGUCACCGGAAUACCAGCAUCGUCUUGAUGCCCUUGGAAGUCCGGUCUGAUGAGUCCGAAGUGGACGAAACAGC [GAAGU]
3. GCUGUCACCGGAAUACCAGCAUCGUCUUGAUGCCCUUGGAAGUCCGGUCUGAUGAGUCCAUCCAGGACGAAACAGC [AUCCA]
4. GCUGUCACCGGAAUACCAGCAUCGUCUUGAUGCCCUUGGAAGUCCGGUCUGAUGAGUCCUUGAAGGACGAAACAGC [UUGAA]
5. GCUGUCACCGGAAUACCAGCAUCGUCUUGAUGCCCUUGGAAGUCCGGUCUGAUGAGUCCCCUGAGGACGAAACAGC [CCUGA]
6. GCUGUCACCGGAAUACCAGCAUCGUCUUGAUGCCCUUGGAAGUCCGGUCUGAUGAGUCCGAACGGGACGAAACAGC [GAACG]

[0.305, 0.483, 0.788, 0.619, 0.904, 1.03]

I would be grateful if you could share the reported FACS-Seq fitted mean (log10) for GCUGUCACCGGAAUACCAGCAUCGUCUUGAUGCCCUUGGAAGUCCGGUCUGAUGAGUCCUCAGUGGACGAAACAGC [UCAGU] . 0.752
